assay: Cmax in C57BL/6J mouse plasma at 10 mg/kg, po administered as single dose by mass spectrometry based UHPLC analysis; assay type: ADME, organism-based; set-up: route oral, dose 10 mg/kg
EXPERIMENTAL_ENDPOINT: Cmax (ng/mL)

a. CO[C@H]1C[C@@H]2CC[C@@H](C)[C@@](O)(O2)C(=O)C(=O)N2CCCC[C@H]2C(=O)O[C@H]([C@H](C)C[C@@H]2CC[C@@H](OCCO)[C@H](OC)C2)CC(=O)[C@H](C)/C=C(\C)[C@@H](O)[C@@H](OC)C(=O)[C@H](C)C[C@H](C)/C=C/C=C/C=C/1C
b. C[C@@H]1COCCN1c1nc(-c2cnc(N)cc2C(F)F)nc(N2[C@H](C)COC[C@@H]2C)n1
For this pair, a and b , which shows a numerically higher Cmax? Please respond with the label that marks your chosen entry. a

meta.source: ChEMBL document CHEMBL4715860
